Recorded values, source patent US20260184702A1.

Test system: MOLM-13 (acute myeloid leukemia)
PROTOCOL_NOTES: CellTiter-Blue Cell Viability Assay, MOLM-13
Type: cell-based
MEASUREMENT_CONDITIONS: Homo sapiens
Procedure: EOL-1 (acute myeloid eosinophilic leukemia), MOLM-13 (acute myeloid leukemia), MONO-MAC-1 (acute monocytic leukemia), and MONO-MVAC-6 (acute monocytic leukemia). In vitro screening was performed by Charles River using the CellTiter-Blue® Cell Viability Assay.
PARAMETER: IC50 (µM)
Give bare numbers, in µM.

MOLECULE	REPORTED_MEASUREMENT
CN1CCN(Cc2c(OC(=O)N3CCC(N4CCCCC4)CC3)ccc3[nH]c(C(=O)c4cc5cc(NC(=O)Nc6cc(C(C)(C)C)on6)ccc5o4)cc23)CC1 [Compound 41b, tris(2,2,2-trifluoroacetate)]	0.00156
CN1CCN(Cc2c(O)ccc3[nH]c(C(=O)c4cc5cc(NC(=O)Nc6cc(C(C)(C)C)on6)ccc5o4)cc23)CC1 [Compound 33b, bis(2,2,2-trifluoroacetate)]	0.00109
CN(C)Cc1c(OC(=O)N2CCC(N3CCCCC3)CC2)ccc2[nH]c(C(=O)c3cc4cc(NC(=O)Nc5cc(C(C)(C)C)on5)ccc4o3)cc12 [Compound 42b, bis(2,2,2-trifluoroacetate)]	0.00067

Now take the following molecule into account.
Write down IC50 measured for item CN(C)Cc1c(O)ccc2[nH]c(C(=O)c3cc4cc(NC(=O)Nc5cc(C(C)(C)C)on5)ccc4o3)cc12 [Compound 34b, 2,2,2-trifluoroacetate]
0.0002

---

ASSAYED_SYSTEM: human FLT3-ITD (Homo sapiens)
PROTOCOL_NOTES: Enzymatic kinase assay FLT3 (ITD), 10-dose IC50 mode (Reaction Biology)
Assay type: biochemical
MEASUREMENT_CONDITIONS: read-out: IC50 FLT3 (ITD); 10 μM ATP; Trihydrochloride
Where a name gives a salt, the structure may show the parent alone.
PARAMETER: pIC50
One number for each entry, as −log10 of the molar value.

Write down pIC50 measured for item CN1CCN(Cc2c(OC(=O)N3CCC(N4CCCCC4)CC3)ccc3[nH]c(C(=O)c4cc5cc(NC(=O)Nc6cc(C(C)(C)C)on6)ccc5o4)cc23)CC1 [Compound 41c, Trihydrochloride]
9.30

---

Field: IC50. Provide a value for each of the compounds that follow.
Test system: MV4-11 cells (FLT3-ITD positive)
PROTOCOL_NOTES: Cell Titer-Glo proliferation assay with MV4-11 cells
Format: cell-based
MEASUREMENT_CONDITIONS: Homo sapiens, MV4-11, 72 h; read-out: IC50 MV4-11 cells
Give bare numbers, in nM.

Provide the reported IC50 of each entry below, same order.
1. C/C=C/C(=O)N1CCN(Cc2c(O)ccc3[nH]c(C(=O)c4cc5cc(NC(=O)Nc6cc(C(C)(C)C)on6)ccc5o4)cc23)CC1 [Compound 57a]
2. CCN1CCN(Cc2c(O)ccc3[nH]c(C(=O)c4cc5cc(NC(=O)Nc6cc(C(C)(C)C)on6)ccc5o4)cc23)CC1 [Compound 69a]
3. CC(C)(C)c1cc(NC(=O)Nc2ccc3oc(C(=O)c4cc5c(CN6CCNCC6)c(O)ccc5[nH]4)cc3c2)no1 [Compound 55b, bis(2,2,2-trifluoroacetate)]
4. CC(C)N1CCN(Cc2c(O)ccc3[nH]c(C(=O)c4cc5cc(NC(=O)Nc6cc(C(C)(C)C)on6)ccc5o4)cc23)CC1 [Compound 70a]
5. C=CC(=O)N1CCN(Cc2c(O)ccc3[nH]c(C(=O)c4cc5cc(NC(=O)Nc6cc(C(C)(C)C)on6)ccc5o4)cc23)CC1 [Compound 56b, 2,2,2-trifluoroacetate]

1: 0.24; 2: 0.13; 3: 0.42; 4: 0.31; 5: 0.17

---

ASSAYED_SYSTEM: human FLT3-ITD (Homo sapiens, UniProt P36888)
PROTOCOL_NOTES: Enzymatic kinase assay FLT3 (ITD), 10-dose IC50 mode (Reaction Biology)
Assay type: biochemical
MEASUREMENT_CONDITIONS: read-out: IC50 FLT3 (ITD); 10 μM ATP; Dihydrochloride
Counter-ions that a name gives are not always drawn.
PARAMETER: pIC50
Numbers only, as −log10 of the molar value.

Write down pIC50 measured for item CC(C)(C)c1cc(NC(=O)Nc2ccc3oc(C(=O)c4cc5c(CN6CCOCC6)c(OC(=O)N6CCC(N7CCCCC7)CC6)ccc5[nH]4)cc3c2)no1 [Compound 38c, Dihydrochloride]
8.82

---

ASSAYED_SYSTEM: human FLT3-ITD (Homo sapiens, UniProt P36888)
PROTOCOL_NOTES: Enzymatic kinase assay FLT3 (ITD), 10-dose IC50 mode (Reaction Biology)
Format: biochemical
MEASUREMENT_CONDITIONS: read-out: IC50 FLT3 (ITD); 10 μM ATP
PARAMETER: pIC50
Answers are plain numbers, as −log10 of the molar value.

> print(dat)
                                   molecule  reported.measurement
1  CN(C)Cc1c(OC(=O)N2CCC(N3CCCCC3)CC2)ccc2[nH]c(C(=O)c3cc4cc(NC(=O)Nc5cc(C(C)(C)C)on5)ccc4o3)cc12 [Compound 42a]                  8.91
2  CC(C)(C)c1cc(NC(=O)Nc2ccc3oc(C(=O)c4cc5c(CN6CCCCC6)c(OC(=O)N6CCC(N7CCCCC7)CC6)ccc5[nH]4)cc3c2)no1 [Compound 39a]                  8.94
3  CN1CCN(Cc2c(OC(=O)N3CCC(N4CCCCC4)CC3)ccc3[nH]c(C(=O)c4cc5cc(NC(=O)Nc6cc(C(C)(C)C)on6)ccc5o4)cc23)CC1 [Compound 41a]                  9.15

Write down pIC50 measured for item CC(C)(C)c1cc(NC(=O)Nc2ccc3oc(C(=O)c4cc5c(CN6CCCC6)c(OC(=O)N6CCC(N7CCCCC7)CC6)ccc5[nH]4)cc3c2)no1 [Compound 40a]
8.94

---

Tested on: MV4-11 cells (FLT3-ITD positive)
PROTOCOL_NOTES: Cell Titer-Glo proliferation assay with MV4-11 cells
Type: cell-based
MEASUREMENT_CONDITIONS: Homo sapiens, MV4-11, 72 h, read-out: IC50 MV4-11 cells [nM]
PARAMETER: IC50 (nM)
Give bare numbers, in nM.

Solved entries (count: 2):
COMPOUND	PARAMETER	UNIT_INFO	REPORTED_MEASUREMENT
CC(C)(C)c1cc(NC(=O)Nc2ccc3oc(C(=O)c4cc5c(CN6CCOCC6)c(OC(=O)N6CCC(N7CCCCC7)CC6)ccc5[nH]4)cc3c2)no1 [Compound 38b, bis(2,2,2-trifluoroacetate)]	IC50	nM	0.38
CN1CCN(Cc2c(OC(=O)N3CCC(N4CCCCC4)CC3)ccc3[nH]c(C(=O)c4cc5cc(NC(=O)Nc6cc(C(C)(C)C)on6)ccc5o4)cc23)CC1 [Compound 41b, tris(2,2,2-trifluoroacetate)]	IC50	nM	1.42

Now take the following compound into account.
Write down IC50 measured for item CN(C)Cc1c(OC(=O)N2CCC(N3CCCCC3)CC2)ccc2[nH]c(C(=O)c3cc4cc(NC(=O)Nc5cc(C(C)(C)C)on5)ccc4o3)cc12 [Compound 42b, bis(2,2,2-trifluoroacetate)]
0.48

---

ASSAYED_SYSTEM: human FLT3-ITD (Homo sapiens)
PROTOCOL_NOTES: Enzymatic kinase assay FLT3 (ITD), 10-dose IC50 mode (Reaction Biology)
Assay type: biochemical
MEASUREMENT_CONDITIONS: read-out: IC50 FLT3 (ITD); 10 μM ATP; bis(2,2,2-trifluoroacetate)
Field: pIC50. Provide a value for each of the compounds that follow.
Answers are plain numbers, as −log10 of the molar value.

COMPOUND	ASSAYED_SYSTEM	PARAMETER	REPORTED_MEASUREMENT
CN(C)Cc1c(OC(=O)N2CCC(N3CCCCC3)CC2)ccc2[nH]c(C(=O)c3cc4cc(NC(=O)Nc5cc(C(C)(C)C)on5)ccc4o3)cc12 [Compound 42b, bis(2,2,2-trifluoroacetate)]	human FLT3-ITD (Homo sapiens)	pIC50	9.09

Write down pIC50 measured for item CC(C)(C)c1cc(NC(=O)Nc2ccc3oc(C(=O)c4cc5c(CN6CCOCC6)c(OC(=O)N6CCC(N7CCCCC7)CC6)ccc5[nH]4)cc3c2)no1 [Compound 38b, bis(2,2,2-trifluoroacetate)]
8.89

---

Field: solubility. Provide a value for each of the compounds that follow.
PROTOCOL_NOTES: Solubility test by UV-Vis spectroscopy of saturated solutions
Type: physicochemical
MEASUREMENT_CONDITIONS: ethanol, organic solvent or mixture, thermodynamic from solid, ethanol, saturated solution; read-out: Solubility Ethanol

Provide the reported solubility of each entry below, same order.
1. C=CC(=O)N1CCN(Cc2c(O)ccc3[nH]c(C(=O)c4cc5cc(NC(=O)Nc6cc(C(C)(C)C)on6)ccc5o4)cc23)CC1 [Compound 56b, 2,2,2-trifluoroacetate]
2. CC(C)(C)c1cc(NC(=O)Nc2ccc3oc(C(=O)c4cc5c(CN6CCCCC6)c(OC(=O)N6CCC(N7CCCCC7)CC6)ccc5[nH]4)cc3c2)no1 [Compound 39a]
3. CC(C)(C)c1cc(NC(=O)Nc2ccc3oc(C(=O)c4cc5c(CN6CCOCC6)c(OC(=O)N6CCC(N7CCCCC7)CC6)ccc5[nH]4)cc3c2)no1 [Compound 38a]
4. CC(C)(C)c1cc(NC(=O)Nc2ccc3oc(C(=O)c4cc5cc(O)ccc5[nH]4)cc3c2)no1 [Marbotinib]
5. CC(C)(C)c1cc(NC(=O)Nc2ccc3oc(C(=O)c4cc5c(CN6CCCC6)c(OC(=O)N6CCC(N7CCCCC7)CC6)ccc5[nH]4)cc3c2)no1 [Compound 40a]

1: 2.54 mg/mL; 2: 1.59 mg/mL; 3: 0.89 mg/mL; 4: 0.22 mg/mL; 5: 1.24 mg/mL
